Reported Inhibition values for a set of molecules
- System: Plasmodium falciparum
- method_summary: GSK_TCMDC: Inhibition of Plasmodium falciparum 3D7 in whole red blood cells, using parasite LDH activity as an index of growth. Test compounds present at 2uM
- Type: functional
// return numeric value only (unit: %, not printed)

molecule	assay_system	measure_name	output_unit	endpoint_result
CCC(CC(C)C(=O)O)=C(c1ccccc1)c1ccccc1 (stereo not drawn)	Plasmodium falciparum	Inhibition	%	98
Fc1ccc2[nH]ccc(=NN=Cc3ccccc3Cl)c2c1	Plasmodium falciparum	Inhibition	%	100
Cc1cccc2nc(-c3cccc(-c4ccc(C(=O)NCCc5ccc(O)c(=O)[nH]5)cc4)c3)[nH]c12	Plasmodium falciparum	Inhibition	%	85

Task item: Report Inhibition, nothing else, for this molecule: COc1cc2nc(N3CCC(CNC(=O)c4ccc(-c5ccc(C#N)cc5)cc4)CC3)nc(N)c2cc1OC
Reply: 100

Task item: Report Inhibition, nothing else, for this molecule: Cc1nn(C)cc1C(C)Nc1nncc(-c2ccc(C(F)(F)F)cc2)n1 (stereo not drawn)
Reply: 100

Task item: Report Inhibition, nothing else, for this molecule: Nc1nccc2ccc(-c3cccc(O)c3)cc12
Reply: 95

Task item: Report Inhibition, nothing else, for this molecule: Cc1ccc(NC(=O)NC2CCN(CCCCCNC(=O)/C=C/c3ccc(Cl)c(Cl)c3)CC2)cc1
Reply: 100

Task item: Report Inhibition, nothing else, for this molecule: CC1CN(c2ccc3[nH]cc(Sc4ccc(-c5cccs5)cc4)c3c2)CC(C)N1.Cl (stereo not drawn)
Reply: 89
